# Tested on: IGROV-1
# assayProcedure: NCI tumour cell line growth inhibition, 48 h
Active and inactive are the calls of the source. No stated cut-off is given here; in the data, active = GI50 up to about 1.1 µM and inactive = higher.
Measured GI50 by item

Worked set:
molecule="N#CC1Cc2cc3c(cc21)OCO3 (stereo not given)" measuredproperty=GI50 result="> 100 µM (inactive)"
molecule=CC(/C=N/N=C(N)N)=N\N=C(N)N measuredproperty=GI50 result="279 µM (inactive)"
molecule="CO[C@H]1[C@@H](O)[C@@H](C)O[C@@H](O[C@H]2CC[C@@]3(C)[C@H](CC[C@@H]4[C@@H]3CC[C@]3(C)[C@@H](C5=CC(=O)OC5)[C@@H](OC(C)=O)C[C@]43O)C2)[C@@H]1O [NERITALOSIDE]" measuredproperty=GI50 result="0.0371 µM (active)"
molecule=COC(=O)CCNC(=O)OCc1ccccc1 measuredproperty=GI50 result="> 100 µM (inactive)"
molecule="OC(c1cc(-c2ccccc2)nc2c1ccc1ccccc12)C1CCCCN1 (stereo not given)" measuredproperty=GI50 result="1.68 µM (inactive)"

QUERY: Form field: GI50 recorded for Nc1c2c(nc3ccccc13)CCCCCC2 with IGROV-1 (enter value)
RESULT: 22.4 µM (inactive)

QUERY: Form field: GI50 recorded for O=C(O)c1cc(=O)c2c([nH]c3ccccc32)s1 with IGROV-1 (enter value)
RESULT: > 100 µM (inactive)

* * *

# System: MDA-MB-435
# assayProcedure: NCI tumour cell line growth inhibition, 48 h
Active and inactive are the calls of the source. Rule as the data show it: active = GI50 up to about 1.1 µM and inactive = higher. Where a SMILES comes first, the peptide text is derived from it. [ ]: non-standard residue; d: D form. The star is where a group is joined. Bn2Val = CC(C)[C@@H](C(=O)*)N(Cc1ccccc1)Cc1ccccc1; NH(3,4-diMeO-benzyl) = COc1ccc(CN*)cc1OC; NMeV = CN[C@H](C(=O)O)C(C)C
I would appreciate it if you answered using one of these outcomes: YES (active), NO (inactive)

For orientation, consider the following solved cases.
compound="O=C1C(Cl)C(c2cccc(Cl)c2)N1c1ccc(-n2c(S)nc3ccccc3c2=O)cc1 (centres undefined)" category=NO
compound=C=CCOc1ccccc1/N=N/C(C#N)=N\Nc1ccccc1OCC=C category=NO
compound="O=C(O)C(Br)C(Br)c1ccccc1[N+](=O)[O-] (centres undefined)" category=NO
compound=COc1ccc(OCc2nc3cc(C(F)(F)F)ccc3nc2-c2ccccc2)cc1 category=NO
compound=N#Cc1ccc(-c2nc3c(N)ncnc3o2)cc1 category=NO

QUERY: Hi team, can someone confirm the assay call for CCOC(=O)C12CCC(=O)N1N(C)c1ncccc1N2 (centres undefined) ?
RESULT: NO

QUERY: Hi team, can someone confirm the assay call for COc1ccc(CNC(=O)[C@@H]2CCCN2C(=O)[C@@H]2CCCN2C(=O)[C@H](C(C)C)N(C)C(=O)[C@@H](NC(=O)[C@H](C(C)C)N(Cc2ccccc2)Cc2ccccc2)C(C)C)cc1OC (Bn2Val-V[NMeV]PP-{NH(3,4-diMeO-benzyl)}) ?
RESULT: NO

QUERY: Hi team, can someone confirm the assay call for CC(C)n1c2c(c3ccccc3c1=O)C(=O)c1ccccc1-2 ?
RESULT: NO

QUERY: Hi team, can someone confirm the assay call for CN(C)N1C(=O)CC2(CCN(CCCC(=O)c3ccc(F)cc3)CC2)C1=O ?
RESULT: NO

QUERY: Hi team, can someone confirm the assay call for CCSc1cc(=O)n(C)c(=O)n1C ?
RESULT: NO

QUERY: Hi team, can someone confirm the assay call for O=C(c1ccccn1)C1(N2CCCCC2)CCCCC1 ?
RESULT: NO

QUERY: Hi team, can someone confirm the assay call for COc1ccc2c(c1)c(=O)c1c(NCCCN(C)C)ccc3ncn2c31 ?
RESULT: NO

QUERY: Hi team, can someone confirm the assay call for CC1(C)NC2C(=O)c3c([nH]c4ccccc34)[C@]3(C)CCC1CC23 (some centres undefined) ?
RESULT: NO

QUERY: Hi team, can someone confirm the assay call for CC(=O)CCCCn1c(=O)c2c(nc(Br)n2C)n(C)c1=O ?
RESULT: NO

QUERY: Hi team, can someone confirm the assay call for C=C1CC2CC(=O)C(O)C(C1)C2 (centres undefined) ?
RESULT: NO

* * *

# System: SNB-75
# assayProcedure: NCI tumour cell line growth inhibition, 48 h
Calls of active or inactive are those of the source. Rule as the data show it: active = GI50 up to about 1.1 µM and inactive = higher. Where a SMILES comes first, the peptide text is derived from it. [ ]: non-standard residue; d: D form. The star is where a group is joined. Bn2Val = CC(C)[C@@H](C(=O)*)N(Cc1ccccc1)Cc1ccccc1; NH(3,4-diMeO-benzyl) = COc1ccc(CN*)cc1OC; NMeV = CN[C@H](C(=O)O)C(C)C
measuredProperty: GI50

Worked set:
compound="CC(C)C1COC(C(C)(C)C2=N[C@@H](C(C)C)CO2)=N1 (stereo partly drawn)" result="> 100 µM (inactive)"
compound="CC(=O)OCC1OC(N2C(=O)/C(=N\\NC(N)=S)c3ccc([N+](=O)[O-])cc32)C(OC(C)=O)C1OC(C)=O (stereo not drawn)" result="18.6 µM (inactive)"
compound="COc1ccc(C2C(Cl)C(=O)N2NC(=O)Cc2ccccc2)cc1 (stereo not drawn)" result="> 100 µM (inactive)"
compound=Nc1nc(-c2ccccc2)cc(-c2cc(Cl)ccc2O)n1 result="28.7 µM (inactive)"
compound="[N-]=[N+]=CC(=O)OCC1NC(=O)C(COC(=O)C=[N+]=[N-])NC1=O (stereo not drawn)" result="> 100 µM (inactive)"

QUERY: Which GI50 is listed for COc1ccc(CNC(=O)[C@@H]2CCCN2C(=O)[C@@H]2CCCN2C(=O)[C@H](C(C)C)N(C)C(=O)[C@@H](NC(=O)[C@H](C(C)C)N(Cc2ccccc2)Cc2ccccc2)C(C)C)cc1OC (Bn2Val-V[NMeV]PP-{NH(3,4-diMeO-benzyl)}) ?
RESULT: 10.3 µM (inactive)

QUERY: Which GI50 is listed for Nc1nc2ncn(CC(O)COC(=O)c3ccccc3)c2c(=O)[nH]1 (stereo not drawn) ?
RESULT: > 100 µM (inactive)

QUERY: Which GI50 is listed for COc1ccc(/C=C2\CCS(=O)(=O)c3ccccc3C2=O)cc1OC ?
RESULT: 24.9 µM (inactive)

* * *

# Tested on: UO-31
# assayProcedure: NCI tumour cell line growth inhibition, 48 h
Active and inactive are the calls of the source. No stated cut-off is given here; in the data, active = GI50 up to about 1.1 µM and inactive = higher.
I would appreciate it if you answered using one of these outcomes: active, inactive

compound="N#CC(N)(C(=O)C(=O)NCCCNC(=O)C(=O)C(N)(C#N)c1ccc(Cl)cc1)c1ccc(Cl)cc1 (centres undefined)" targetofassay=UO-31 category=inactive
compound=C[S+](C)CC(=O)c1ccc2c(c1)Sc1ccccc1O2 targetofassay=UO-31 category=inactive
compound="O=C1C2=C(c3ccccc31)C(c1cccc(Cl)c1)NC(S)=N2 (centres undefined)" targetofassay=UO-31 category=inactive
compound="CC(=O)Nc1cc(C(=O)Nc2cc(C(=O)N3CC(CCl)c4c3cc(N)c3ccccc43)nn2C)nn1C (centres undefined)" targetofassay=UO-31 category=active
compound="O=C1N2Cc3c4ccc5c3CN3C(=O)N6Cc7c(ccc(c7CN1C6(c1ccccc1)C23c1ccccc1)OCCOCCOc1cc(Br)c(Br)cc1OCCOCCO4)OCCOCCOc1cc(Br)c(Br)cc1OCCOCCO5 (centres undefined)" targetofassay=UO-31 category=inactive
compound="N#Cc1ccc(C2OCC3CC=CCC3CO2)cc1 (centres undefined)" targetofassay=UO-31 category=inactive

QUERY: Hi team, can someone confirm the assay call for COC(=N)CCCl ?
RESULT: inactive

QUERY: Hi team, can someone confirm the assay call for COC(=O)c1ccccc1NC(=O)C(=O)CC(=O)c1ccccc1NC1=CC(=O)C(=O)c2ccccc21 ?
RESULT: inactive

QUERY: Hi team, can someone confirm the assay call for COc1ccc(NC(=O)/C(=N/NC(N)=S)C2C(=O)NC(=S)NC2=O)c(OC)c1 ?
RESULT: inactive

* * *

# Tested on: RPMI-8226
# assayProcedure: NCI tumour cell line growth inhibition, 48 h
Calls of active or inactive are those of the source. No stated cut-off is given here; in the data, active = GI50 up to about 1.1 µM and inactive = higher.
I would appreciate it if you answered using one of these outcomes: active, inactive

For orientation, consider the following solved cases.
molecule=CC(=O)c1ccc(Nc2c3c(nc4ccccc24)CCCC3)cc1 targetofassay=RPMI-8226 category=inactive
molecule=C/C(CC(O)(C(F)(F)Cl)C(F)(F)Cl)=N\Nc1ccccc1 targetofassay=RPMI-8226 category=inactive

// next entry
QUERY: Hi team, can someone confirm the assay call for COC(=O)C1=Nc2c(C)nn(-c3ccccc3)c2N=C(c2ccc(C)cc2)C1 ?
RESULT: inactive

* * *

# System: MOLT-4
# assayProcedure: NCI tumour cell line growth inhibition, 48 h
Active and inactive are the calls of the source. No stated cut-off is given here; in the data, active = GI50 up to about 1.1 µM and inactive = higher.
measuredProperty: GI50

Worked set:
compound=Nc1c2c(nc3ccccc13)CCCCCC2 targetofassay=MOLT-4 result="27.2 µM (inactive)"
compound=CCCn1c2c(c3ccccc3c1=O)C(=O)c1ccccc1-2 targetofassay=MOLT-4 result="3.61 µM (inactive)"
compound=Clc1ccc(OCc2nn3c(CCc4nnc5sc(COc6ccc(Cl)cc6)nn45)nnc3s2)cc1 targetofassay=MOLT-4 result="6.62 µM (inactive)"
compound=Cc1ccc(S(=O)(=O)N2CCCCN(S(=O)(=O)c3ccc(C)cc3)Cc3ccccc3OCCOCCOc3c4cccc3Cc3cccc5c3OCCOCCOc3ccccc3CN(S(=O)(=O)c3ccc(C)cc3)CCCN(S(=O)(=O)c3ccc(C)cc3)Cc3ccccc3OCCOCCOc3c(cccc3C4)Cc3cccc(c3OCCOCCOc3ccccc3C2)C5)cc1 targetofassay=MOLT-4 result="> 100 µM (inactive)"
compound=O=S(=O)(SC1=NCCN1)c1ccc2ccccc2c1 targetofassay=MOLT-4 result="24.8 µM (inactive)"

QUERY: Which GI50 is listed for O=C1N2Cc3c4ccc5c3CN3C(=O)N6Cc7c(ccc(c7CN1C6(c1ccccc1)C23c1ccccc1)OCCOCCOc1cc(Br)c(Br)cc1OCCOCCO4)OCCOCCOc1cc(Br)c(Br)cc1OCCOCCO5 (stereo not drawn) ?
RESULT: > 100 µM (inactive)

QUERY: Which GI50 is listed for CC(C)CC(=O)OC[n+]1ccc(-c2c(COC(=O)NC(C)C)c(COC(=O)NC(C)C)c3n2CCC3)cc1 ?
RESULT: 32.3 µM (inactive)

QUERY: Which GI50 is listed for COc1cccc2c1C(=O)OC2c1cccc2ccccc12 (stereo not drawn) ?
RESULT: > 100 µM (inactive)

QUERY: Which GI50 is listed for CN(C)CCNC(=O)c1cccc2ccc(-c3cccnc3)nc12 ?
RESULT: 2.74 µM (inactive)

QUERY: Which GI50 is listed for COc1ccc(/C=N/Nc2nc3ccccc3c(=O)n2-c2ccccc2)c(OCc2ccccc2)c1 ?
RESULT: > 100 µM (inactive)

QUERY: Which GI50 is listed for CC1=CC2c3cccc4[nH]cc(c34)CC2N(C)C1 (stereo not drawn) ?
RESULT: > 68.1 µM (inactive)

Measured values drawn from ChEMBL document CHEMBL1201862 for this set.
